# System name: hCB1 (Homo sapiens)
# Sequence (P21554 whole entry): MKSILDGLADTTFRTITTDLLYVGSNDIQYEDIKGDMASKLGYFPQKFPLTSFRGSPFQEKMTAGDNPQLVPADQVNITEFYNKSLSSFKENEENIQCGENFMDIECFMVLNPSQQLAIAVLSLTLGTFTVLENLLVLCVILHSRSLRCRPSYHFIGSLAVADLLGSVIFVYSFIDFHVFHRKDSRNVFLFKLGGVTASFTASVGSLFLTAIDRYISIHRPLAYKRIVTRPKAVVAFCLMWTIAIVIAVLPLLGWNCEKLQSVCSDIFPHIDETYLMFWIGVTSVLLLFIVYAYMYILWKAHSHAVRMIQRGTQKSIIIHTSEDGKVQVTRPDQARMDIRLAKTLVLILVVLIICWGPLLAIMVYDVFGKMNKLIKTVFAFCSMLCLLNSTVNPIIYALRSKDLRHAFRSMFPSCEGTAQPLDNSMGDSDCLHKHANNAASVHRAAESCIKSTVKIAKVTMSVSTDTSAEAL
# Protocol description: bioSensAll ebBRET signaling profiling, hCB1
# Assay type: cell-based
# Design: host or cells: HEK293SL cells, transient PEI transfection
# Condition summary: Gi1 biosensor; Log [Compound] (M) -4.22186
Criterion: Gi1 hCB1 response strictly less than 100. Met: fulfilled. Not met: not fulfilled.

Molecule	Class
COC(=O)[C@@H]1[C@@H]2CC[C@@H]2CN1C(=O)c1cc(C)n(-c2cccc(C(F)(F)F)c2)n1	not fulfilled

Lab note: confirm whether the reported Gi1 hCB1 response for this molecule is below 100, equality not counting. molecule: Cc1cc(C(=O)N(C)C(c2ccccc2)c2ccco2)nn1-c1cccc(C(F)(F)F)c1 (centres unmarked) fulfilled

I wonder whether COC(=O)[C@@H]1[C@@H]2CCC[C@@H]2CN1C(=O)c1cc(C)n(-c2cccc(C(F)(F)F)c2)n1 has Gi1 hCB1 response below 100. Can you tell? not fulfilled

Item Cc1cc(C(=O)NC(c2ccccc2)c2ccco2)nn1-c1cccc(C(F)(F)F)c1 (centres unmarked) : Gi1 hCB1 response beneath 100, strictly? fulfilled

Below 100 on Gi1 hCB1 response? Entry Cc1cc(C(=O)NC(c2ccco2)c2ccco2)nn1-c1cccc(C(F)(F)F)c1 not fulfilled

Gi1 hCB1 response strictly < 100 for this molecule? COC(=O)C(NC(=O)c1cc(C)n(-c2cccc(F)c2)n1)c1cccs1 (centres unmarked) not fulfilled

Please determine if CC(=O)C(c1cccs1)N(C)C(=O)c1cc(C)n(-c2cccc(C(F)(F)F)c2)n1 (centres unmarked) is below 100 in terms of Gi1 hCB1 response. fulfilled

Please state whether Gi1 hCB1 response is below 100 for COC(=O)C(NC(=O)c1cc(C)n(-c2cccc(C(F)(F)F)c2)n1)c1cccs1 (centres unmarked) not fulfilled

src = paper PMC11882969
